Source: patent US10105357B2

Below, each of the molecules is paired with its reported viability at 10 µM value.
System: HL-60 (Acute Promyelocytic Leukemia)
Protocol Text: Cell viability analysis, leukemia HL-60
Type: cell-based, human
Condition Details: Homo sapiens, HL-60, 72 h, drug 10 μM, 72 hours, WST-1, OD450 nm; read-out: cell viability (survival rate), HL-60
Readout Kind: viability at 10 µM (%)

Molecule	Unit Annotation	Val
CCn1cc(C(=O)O)c(=O)c2cc(F)c(N3CCNCC3)nc21	%	108
NNC(=O)c1ccncc1	%	102
C[C@@H]1CN(c2c(F)c(F)c3c(=O)c(C(=O)O)cn(C4CC4)c3c2F)C[C@H](C)N1	%	92.3
NC(=O)N/N=C/c1ccc([N+](=O)[O-])o1	%	85.6
CCCCCCCCCCCC[N+](C)(C)CCOc1ccccc1 [Domiphen Bromide]	%	30
CC[C@@H]([C@H](C)O)n1ncn(-c2ccc(N3CCN(c4ccc(OC[C@@H]5CO[C@@](Cn6cncn6)(c6ccc(F)cc6F)C5)cc4)CC3)cc2)c1=O	%	71.3
COc1ncnc(NS(=O)(=O)c2ccc(N)cc2)c1OC [Sulfadoxine (Sulphadoxine), Sulfadoxine]	%	111
CCCNC(=O)NS(=O)(=O)c1ccc(Cl)cc1 [Chlorpropamide]	%	96.7
